test system: NUGC-4; test: Cell proliferation assay (CellTiter-Glo, 72 hours); format: cell-based; conditions: Homo sapiens, read-out: IC50 anti-proliferative

[
  {
    "Compound": "Cc1c(C(=O)Nc2ccc(Oc3ccnc4cc(OCC(C)(C)O)ccc34)c(F)c2)c(=O)n(-c2ccccc2)n1C [CT053]",
    "System under test": "NUGC-4",
    "IC50": "> 10 µM"
  }
]

* * *

Assay: Phase I trial: clinical pharmacokinetics in plasma
Format: in vivo, human
Details: human, plasma, oral, 15 mg, Single dose day 1, 15 mg, n=1
Experimental: A clinical pharmacokinetic study of CT053PTSA was performed for both single doses and multiple doses. […] Statistical analysis of CT053-treated tumors versus vehicle-treated tumors or versus nontreated tumors was performed by repeated-measures ANOVA. The data from the tumor xenograft models were expressed as the means ± standard error of the mean (SEM) and were plotted as a function of time. […]
Property name: AUC(0-inf) (ng·h/mL)

[
  {
    "Molecule": "Cc1c(C(=O)Nc2ccc(Oc3ccnc4cc(OCC(C)(C)O)ccc34)c(F)c2)c(=O)n(-c2ccccc2)n1C [CT053PTSA]",
    "Unit": "ng·h/mL",
    "Test result": 6190
  }
]

meta.source: paper PMC9632963
